Values from patent US8163909B2

- procedure.details: Microsomal stability assay, human liver microsomes;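 further: pooled human liver microsomes at 0.25 mg/mL with 1 µM compound and NADPH at 37 °C, pH 7.4, for 30 min, unchanged parent quantified by LC-MS/MS against the 0 min sample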
- applied.conditions: human liver microsomal data

test.smiles	unit.label	HLM
COC(OC)C(=O)N[C@@H](Cc1cc(F)cc(-c2nccs2)c1)[C@H](O)CN[C@H]1CC2(CCC2)Oc2ncc(CC(C)(F)F)cc21	µL/min/mg	41
CC#Cc1ccc2c(c1)[C@@H](NC[C@@H](O)[C@H](Cc1cc(F)cc(-c3nccs3)c1)NC(=O)COC)CC1(CCC1)O2	µL/min/mg	61
CC(=O)N[C@@H](Cc1ccccc1)[C@H](O)CN[C@H]1CC2(CCC2)Oc2c1cc(CC(C)(C)C)nc2-c1ccncc1	µL/min/mg	36
C#Cc1cnc2c(c1)[C@@H](NC[C@@H](O)[C@H](Cc1cc(F)cc(-c3nccs3)c1)NC(=O)COC)CC1(CCC1)O2	µL/min/mg	70
COCC(=O)N[C@@H](Cc1cccc(F)c1)[C@H](O)CN[C@H]1CC2(CCC2)Oc2c1cc(CC(C)(C)C)nc2-c1ccncc1	µL/min/mg	40
CC(C)(C)Cc1cnc2c(c1)[C@@H](NC[C@@H](O)[C@H](Cc1ccc(F)cc1)NC(=O)C(C)(F)F)CC1(CCC1)O2	µL/min/mg	118
